Molecular target: 5HT1A serotonin receptor (Rattus norvegicus, UniProt P19327)
Construct: To the cerebral cortex enucleated from a Wistarstrain male rat
Sequence (P19327 1-422): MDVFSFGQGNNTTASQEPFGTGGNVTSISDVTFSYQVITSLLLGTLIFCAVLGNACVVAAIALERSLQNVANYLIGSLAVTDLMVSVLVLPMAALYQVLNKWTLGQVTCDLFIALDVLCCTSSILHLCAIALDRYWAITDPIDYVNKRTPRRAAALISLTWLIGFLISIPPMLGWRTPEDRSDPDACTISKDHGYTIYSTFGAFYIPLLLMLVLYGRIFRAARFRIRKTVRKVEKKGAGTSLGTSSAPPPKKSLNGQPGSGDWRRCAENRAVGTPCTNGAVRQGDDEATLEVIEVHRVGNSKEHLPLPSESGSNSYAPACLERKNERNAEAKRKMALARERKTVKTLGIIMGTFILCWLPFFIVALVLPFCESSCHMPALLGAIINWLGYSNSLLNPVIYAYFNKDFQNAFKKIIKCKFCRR
Test: Affinity for Serotonin Receptor ([3H]8-OH-DPAT binding, rat cerebral cortex homogenate)
Details: [3H]8-OH-DPAT 0.4 nM, 25° C., 30 minutes
readout.label: IC50

Guide cases for IC50, answers given:
compound: COc1ccnc(N2CCN(CCCCN3C(=O)COc4ccccc4C3=O)CC2)n1 [Example 83]
IC50: 4.16 nM
//
compound: O=C1COc2ccccc2C(=O)N1CCCCN1CCN(c2ccccc2Cl)CC1 [Example 36]
IC50: 2.31 nM
//
compound: COc1ccc2c(c1)C(=O)N(CCCCN1CCN(c3ncccc3Cl)CC1)C(=O)CO2 [Example 54]
IC50: 4.91 nM
//
compound: O=C1COc2ccccc2C(=O)N1CCCCN1CCN(c2cccc(Cl)c2)CC1 [Example 39]
IC50: 1.41 nM
//
compound: O=C1COc2ccccc2C(=O)N1CCCCN1CCN(c2ncccn2)CC1 [Example 52]
IC50: 3.75 nM

Prompt line: Please list IC50 recorded for the compound COc1ccc2c(c1)OCC(=O)N(CCCCN1CCN(c3ncccn3)CC1)C2=O [Example 72]
Response line: 4.26 nM

Prompt line: Please list IC50 recorded for the compound Cc1ccc2c(c1)OCC(=O)N(CCCCN1CCN(c3ccccn3)CC1)C2=O [Example 65]
Response line: 1.55 nM

Prompt line: Please list IC50 recorded for the compound O=C1COc2ccccc2C(=O)N1CCCCN1CCN(c2ccc(F)cc2)CC1 [Example 43]
Response line: 2.48 nM

Prompt line: Please list IC50 recorded for the compound O=C1c2ccccc2OCCN1CCCCN1CCN(c2ccccn2)CC1 [Example 27]
Response line: 6.15 nM

Prompt line: Please list IC50 recorded for the compound O=C1COc2cc(Cl)ccc2C(=O)N1CCCCN1CCN(c2ncccn2)CC1 [Example 64]
Response line: 4.1 nM

----------
Molecular target: 5HT1A serotonin receptor (Rattus norvegicus, UniProt P19327)
Construct: To the cerebral cortex enucleated from a Wistarstrain male rat
Assay: Affinity for Serotonin Receptor ([3H]8-OH-DPAT binding, rat cerebral cortex homogenate)
Conditions: [3H]8-OH-DPAT 0.4 nM, 25° C., 30 minutes
Experimental: The test was conducted according to the method of S. T. Perouka (J. Neurochem., 47, 529-540 (1986)). To the cerebral cortex enucleated from a Wistarstrain male rat was added 50 mM Tris-HCl (pH 7.7) buffer and the mixture was homogenized by using Polytron®. The homogenate was centrifuged at 40,000 G for 10 minutes, and to the obtained precipitate was added the same buffer to effect homogenization, followed by incubation at 37° C. for 30 minutes. […]
readout.label: pIC50
pIC50 (log units): -log10 of the concentration in mol/L.

Guide cases for pIC50, answers given:
structure.notation: O=C1COc2ccccc2C(=O)N1CCCCN1CCN(c2ncccc2Cl)CC1
measurement.target: 5HT1A serotonin receptor (Rattus norvegicus, UniProt P19327)
result: 8.56
--
structure.notation: COc1ccc2c(c1)C(=O)N(CCCCN1CCN(c3ncccn3)CC1)C(=O)CO2
measurement.target: 5HT1A serotonin receptor (Rattus norvegicus, UniProt P19327)
result: 8.30
--
structure.notation: COc1ccccc1N1CCN(CCCCN2CCOc3ccccc3C2=O)CC1
measurement.target: 5HT1A serotonin receptor (Rattus norvegicus, UniProt P19327)
result: 8.58

Prompt line: Please list pIC50 recorded for the compound `O=C1COc2cc(Cl)ccc2C(=O)N1CCCCN1CCN(c2ccccn2)CC1`
Response line: 8.75

Prompt line: Please list pIC50 recorded for the compound `Cc1ccc2c(c1)OCC(=O)N(CCCCN1CCN(c3ncccn3)CC1)C2=O`
Response line: 8.32
